Target System: T1, human pro-EMAPII (human, UniProt Q12904 1-312)
T1 chain: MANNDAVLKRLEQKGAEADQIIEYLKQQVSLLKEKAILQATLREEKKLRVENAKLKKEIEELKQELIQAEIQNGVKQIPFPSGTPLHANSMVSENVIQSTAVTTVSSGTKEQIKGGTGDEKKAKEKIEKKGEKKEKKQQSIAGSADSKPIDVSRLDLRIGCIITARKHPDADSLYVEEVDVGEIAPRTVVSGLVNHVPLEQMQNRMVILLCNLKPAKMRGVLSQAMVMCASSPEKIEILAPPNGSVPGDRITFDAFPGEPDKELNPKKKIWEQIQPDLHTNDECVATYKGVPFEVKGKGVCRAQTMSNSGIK
Protocol Details: ELISA
Endpoint: EC50

INSERT INTO measurements (binder, endpoint, assay_result) VALUES
  ('Humanized HC4 + LC1 (antibody, V domains shown) VH: EVQLVESGGGLVQPGGSLKLSCAASGFTFSDAAIYWVRQASGKGLEWVARIRTKPNNYATYYAASVKGRFTISRDDSNSTAYLQMNSLKTEDTAVYYCTSWSYDFDYWGQGTLVTVSS VL: DIVMTQSPLSLPVTPGEPASISCRSSKSLLHSSGKTYLNWYLQKPGQSPQLLIYWMSNRASGVPDRFSGSGSGTDFTLKISRVEAEDVGVYYCQQFLEYPLTFGQGTKLEIKR', 'EC50', '0.198 µg/mL');
